Biological target: T1, cynomolgus monkey PD-L1 on CHO-K1 cells overexpressing cynomolgus monkey PD-L1 (cynomolgus monkey, UniProt G7PSE7 19-290)
T1 construct: also called CHO-K1/cynoPD-L1; GenScript M00573
T1 sequence (G7PSE7 entry or part of it limits assumed): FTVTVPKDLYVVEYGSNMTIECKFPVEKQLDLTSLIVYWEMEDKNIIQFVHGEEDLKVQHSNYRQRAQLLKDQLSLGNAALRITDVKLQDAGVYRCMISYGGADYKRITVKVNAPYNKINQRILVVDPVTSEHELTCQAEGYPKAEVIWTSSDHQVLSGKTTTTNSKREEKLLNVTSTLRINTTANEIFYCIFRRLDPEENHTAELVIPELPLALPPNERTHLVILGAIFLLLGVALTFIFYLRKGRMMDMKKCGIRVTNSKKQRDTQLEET
Assay: flow cytometry on CHO-K1 cells overexpressing cynomolgus monkey PD-L1 (CHO-K1/cynoPD-L1)
readout.name: Maximum MFI (MFI)

{"binder": "PR002082 (antibody, human IgG1, V domains shown, HCAb; also called PTM variant of PR000960 (N28T, N31S)) VH: QVQLVESGGGVVQPGMSLRLSCAASGFTFSSYGMYWVRQAPGKGQEWVAIIWYDGTKKHYADSVKGRFTISRDNSKNTLYLEMNSLRVEDTAVYYCAKNRAIFGVVPDASDIRGQGTMVTVSS", "unit.abbreviation": "MFI", "Maximum MFI": 12100}
{"binder": "PR005263 (antibody, human IgG1, V domains shown, The HC entry is used) VH: QVQLVESGGGVVQPGMSLRLSCAASGFTFSSYGMYWVRQAPGKGQEWVASIRYTGTEKHYADSVKGRFTISRDNSKNTLYLEMNSLRVEDTAVYYCAKNRAIFGVVPDASDIRGQGTMVTVSS", "unit.abbreviation": "MFI", "Maximum MFI": 11700}
{"binder": "PR006246 (antibody, human IgG1, V domains shown, The HC entry is used) VH: QVQLVESGGGVVQPGMSLRLSCAASGFDFSSYGMYWVRQAPGKGQEWVASIRYTGTEKHYADSVKGRFTISRDNSKNTLYLEMNSLRVEDTAVYYCAKNRAIFGVIPDDSDIRGQGTMVTVSS", "unit.abbreviation": "MFI", "Maximum MFI": 11600}
{"binder": "PR005875 (antibody, human IgG1, V domains shown, The HC entry is used) VH: QVQLVESGGGVVQPGMSLRLSCAASGFTFSSYGMYWVRQAPGKGQEWVASIRYTGTEKHYADSVKGRFTISRDNSKNTLYLEMNSLRVEDTAVYYCAKNRALFGVIPDASDIRGQGTMVTVSS", "unit.abbreviation": "MFI", "Maximum MFI": 11500}
{"binder": "PR005878 (antibody, human IgG1, V domains shown, The HC entry is used) VH: QVQLVESGGGVVQPGMSLRLSCAASGFTFSSYGMYWVRQAPGKGQEWVASIRYTGTEKHYADSVKGRFTISRDNSKNTLYLEMNSLRVEDTAVYYCAKNRALFGVIPDDSDIRGQGTMVTVSS", "unit.abbreviation": "MFI", "Maximum MFI": 11700}
{"binder": "PR006248 (antibody, human IgG1, V domains shown, The HC entry is used) VH: QVQLVESGGGVVQPGMSLRLSCAASGFDFSSYGMYWVRQAPGKGQEWVASIRYTGTEKHYADSVKGRFTISRDNSKNTLYLEMNSLRVEDTAVYYCAKNRALFGVIPDDSDIRGQGTMVTVSS", "unit.abbreviation": "MFI", "Maximum MFI": 11500}
{"binder": "PR005872 (antibody, human IgG1, V domains shown, The HC entry is used) VH: QVQLVESGGGVVQPGMSLRLSCAASGFTFSSYGMYWVRQAPGKGQEWVASIRYTGTEKHYADSVKGRFTISRDNSKNTLYLEMNSLRVEDTAVYYCAKNRAIFGVIPDDSDIRGQGTMVTVSS", "unit.abbreviation": "MFI", "Maximum MFI": 11800}
